Entry source: patent US20090208538A1

target: HLA-A*1101 (human); test: iTopia off-rate
READOUT: t1/2

>>> measurement("TQYSALKVK [cdr2 351-359 TQYSALKVK]")
0.76
>>> measurement("RQMNEQHAK [cdr2 74-82 RQMNEQHAK]")
3.85
>>> measurement("ESHRKPLKR [cdr2 300-308 ESHRKPLKR]")
0.35
